System: SARS-CoV-2
protocol description: microbe, parasite or virus in culture
condition description: Severe acute respiratory syndrome coronavirus 2, Vero C1008, 48 h
attribute measured: IC50

Example entries and their recorded answers appear below.
compound="CC12CCC3C(CCC4CC(N)C(O)CC43C)C1CCC2=O (stereo unspecified)" result="> 20 µM"
compound=Oc1nc(O)c2cn[nH]c2n1 result="> 20 µM"
compound=C#CCN(C)CCCOc1ccc(Cl)cc1Cl result="> 20 µM"
compound=CNCc1ccc(C)c(NC(=O)c2ccc(Nc3nc(-c4ccccc4)c4ccccc4n3)cc2)c1 result="2.95 µM"
compound=CCCN(CCC)CCc1cccc2c1CC(=O)N2 result="> 20 µM"
compound=CC[C@@H]1C(=O)OC[C@@H]1Cc1cncn1C result="> 20 µM"
compound=CCCCOc1ccc(CC(=O)NO)cc1 result="> 20 µM"
compound=CC[C@@]1(c2ccccc2)NC(=O)N(C)C1=O result="> 20 µM"
compound=CCCCN1C[C@H](O)[C@@H](O)[C@H](O)[C@H]1CO result="> 20 µM"
compound=CNCc1ccc(-c2cc(-c3nc(-c4ccc(S(=O)(=O)C(C)C)cc4)cnc3N)on2)cc1 result="> 5.01 µM"

Could you now consider this next compound?
Please give measured IC50 of the following entry: CC(C)NCC(O)COc1ccc(CC(N)=O)cc1 (racemic)
> 20 µM

---

I'd be grateful if you could share measured IC50 for these entries.
System: SARS-CoV-2
protocol description: microbe, parasite or virus in culture
Type: functional, organism-based, Chlorocebus sabaeus, Vero C1008
condition description: Severe acute respiratory syndrome coronavirus 2, Vero C1008, 48 h; read-out: IC50

Example entries and their recorded answers appear below.
compound=CC(C)C(=O)OC[C@H]1O[C@@H](n2cc/c(=N\O)[nH]c2=O)[C@H](O)[C@@H]1O result="~4.56 µM"
compound=COc1cc(/C=C/C(=O)CC(=O)/C=C/c2ccc(O)c(OC)c2)ccc1O result="> 100 µM"

Take each entry in turn and give its IC50.
1. Cc1cccc(C)c1OCC(=O)N[C@@H](Cc1ccccc1)[C@@H](O)C[C@H](Cc1ccccc1)NC(=O)[C@H](C(C)C)N1CCCNC1=O
2. O=C(Nc1ccccc1)OCC(CN1CCCCC1)OC(=O)Nc1ccccc1 (stereo unspecified)
3. CN(C)CC/C=C1/c2ccccc2Sc2ccc(Cl)cc21
4. CC1(C)CCC(c2ccc(Cl)cc2)=C(CN2CCN(c3ccc(C(=O)NS(=O)(=O)c4ccc(N[C@H](CCN5CCOCC5)CSc5ccccc5)c(S(=O)(=O)C(F)(F)F)c4)cc3)CC2)C1
5. CCN(CC)CCNC(=O)c1ccc(NS(C)(=O)=O)cc1 [SEMATILIDE]
6. CCCCCCC(C)(C)c1cc(O)c([C@H]2CC(=O)[C@H]3C[C@@H]2C3(C)C)c(OC(=O)/C=C/C(=O)O)c1
7. Nc1nc(Nc2ccc3c(c2)CC[C@@H](N2CCCC2)CC3)nn1-c1cc2c(nn1)-c1ccccc1CCC2
8. CNCCCC1c2ccccc2C=Cc2ccccc21

~15.7 µM
> 25.1 µM
> 100 µM
> 100 µM
> 100 µM
> 50.1 µM
> 50.1 µM
> 100 µM

Take each entry in turn and give its IC50.
1. CN(C[C@@H]1COCCO1)S(=O)(=O)Nc1ccc2ccc3ncc(-c4cnn(C)c4)cc3c(=O)c2c1
2. OCc1cc(C(O)CNCCCCCCOCCCCc2ccccc2)ccc1O (stereo unspecified)
3. Cc1ccc(CCCO)c(NCc2ccc3nc(NCCCN4CCOCC4)n(Cc4nc(C)ccc4O)c3c2)c1
4. COc1ccc2nc3c(c(N)c2c1)CCCC3
5. CCOc1ccc(-n2c([C@@H](C)N(Cc3cccnc3)C(=O)Cc3ccc(OC(F)(F)F)cc3)nc3ncccc3c2=O)cc1 (racemic)
6. NCC[C@H](Oc1ccc(C(F)(F)F)cc1)c1ccccc1

1: > 20 µM; 2: > 100 µM; 3: > 20 µM; 4: > 25.1 µM; 5: > 20 µM; 6: > 100 µM

Attribution: ChEMBL document CHEMBL4651402
